- Test system: CYP3A4/5
- method summary: in vitro
- condition set: human, microsomes, pH 7.4, Percent of Control Activity, CYP 3A4/5 (mdz), 0.979 µM, Zero-Minute Preincubation
endpoint: activity at 0.979 µM (%)
Give the value, in units of %, as a plain number.

Give me measured activity at 0.979 µM, please, for this molecule: COc1cccc2[nH]c(C(=O)N[C@@H](CC(C)C)C(=O)N[C@@H](C[C@@H]3CCNC3=O)C(=O)CO)cc12 [PF-00835231] 95.5

----------
- Tested on: CYP3A4/5
- method summary: in vitro
- condition set: human, microsomes, pH 7.4, Percent of Control Activity, CYP 3A4/5 (mdz), 0.158 µM, 30-Minute Preincubation
endpoint: activity at 0.158 µM (%)
Give the value, in units of %, as a plain number.

Give me measured activity at 0.158 µM, please, for this molecule: COc1cccc2[nH]c(C(=O)N[C@@H](CC(C)C)C(=O)N[C@@H](C[C@@H]3CCNC3=O)C(=O)COP(=O)(O)O)cc12 102
